// data source = PubChem BioAssay (EPA / NIEHS)

Read-out: C-C motif chemokine 2 (Homo sapiens)
method description: BSK_KF3CT_MCP1: BioMAP Diversity Plus: KF3CT Assay for Monocyte Chemoattractant Protein 1 (MCP1/CCL2) Biomarker Activity (AID 2283073)
applied conditions: primary human keratinocytes with fibroblasts; actives raise or lower the signal
Activity calls are given as the source filed them. The calls were made as follows: active = hit-call score of the fitted dose curve at least 0.9, where 1 is the maximum; inactive = score below 0.9.
Choose the fitting class; nothing outside Yes = active, No = inactive is accepted.

Past entries and their recorded results:
• CCCCCCCCCCCC[N+](C)(C)C = Yes
• O=c1ccc2ccccc2o1 = No
• c1ccc2ccccc2c1 = No
• O=C1O[C@H]([C@@H](O)CO)C(O)=C1O = No

Problem: Hey, what did the test say about CCCCCCCCCCCO ?
Solution: No

Problem: Hey, what did the test say about COc1cccc([C@H](O)C2CCN(CCc3ccc(F)cc3)CC2)c1OC ?
Solution: No

Problem: Hey, what did the test say about CC(C)(C)c1cc(/C=C2\SC(N)=NC2=O)cc(C(C)(C)C)c1O ?
Solution: Yes

Problem: Hey, what did the test say about CC1(C)NC(=O)N(c2ccc([N+](=O)[O-])c(C(F)(F)F)c2)C1=O ?
Solution: No

Problem: Hey, what did the test say about c1ccc2n[nH]nc2c1 ?
Solution: No

Problem: Hey, what did the test say about CCN(Cc1cccc(S(=O)(=O)O)c1)c1ccc(C(=C2C=CC(=[N+](CC)Cc3cccc(S(=O)(=O)O)c3)C=C2)c2ccccc2S(=O)(=O)[O-])cc1 ?
Solution: No
